Let's look at some molecules and their measured Tyrosinase Activity relative to Vehicle Control.
# Test system: Mushroom tyrosinase
# assay.explanation: Mushroom tyrosinase assay
# Format: biochemical
# experimental.setup: concentration 0.0100%; percent change vs DMSO vehicle; L-Tyrosine substrate, 25° C., 30 min
test.readout: Tyrosinase Activity relative to Vehicle Control (%)

{"chemical.string": "Sc1nnc2sc3ccccc3n12", "value.unit": "%", "endpoint.value": "−49"}
{"chemical.string": "S=c1nc(-c2cccs2)cn[nH]1", "value.unit": "%", "endpoint.value": "−53"}
{"chemical.string": "Cc1cc(C)n(-c2ccc(=S)[nH]n2)n1", "value.unit": "%", "endpoint.value": "−70"}
{"chemical.string": "Cn1c2ccccc2n2c(=S)[nH]nc12", "value.unit": "%", "endpoint.value": "−70"}
{"chemical.string": "S=c1[nH]nc(-c2ccc3c(c2)OCO3)o1", "value.unit": "%", "endpoint.value": "−77"}
{"chemical.string": "CC(C)c1nc(=S)[nH]n1-c1ccccc1", "value.unit": "%", "endpoint.value": "−81"}

----------
# System: B16 mouse melanoma cells
# assay.explanation: Inhibition of melanin production in B16 melanoma cell assay
# Type: cell-based
# experimental.setup: concentration 0.0010%; 4 days; normalized to cell viability (MTT); alpha MSH 2 ng/ml
Mark each entry Fulfilled if its B16 Assay Percent Change Melanin Compared to Vehicle sits below -60%, and Not fulfilled for all others.

{"compound": "Sc1nnc2sc3ccccc3n12 [AV0442]", "qualitative.label": "Not fulfilled"}
{"compound": "Cn1c2ccccc2n2c(=S)[nH]nc12 [AV7533]", "qualitative.label": "Fulfilled"}
{"compound": "S=c1nc(-c2cccs2)cn[nH]1 [AV4926]", "qualitative.label": "Not fulfilled"}
{"compound": "Cc1cc(C)n(-c2ccc(=S)[nH]n2)n1 [AV7909]", "qualitative.label": "Fulfilled"}
{"compound": "S=c1[nH]nc(-c2ccc3c(c2)OCO3)o1 [AV5828]", "qualitative.label": "Not fulfilled"}

----------
# Tested on: Mushroom tyrosinase
# assay.explanation: Mushroom tyrosinase assay
# Format: biochemical
# experimental.setup: concentration 0.0010%; percent change vs DMSO vehicle; L-Tyrosine substrate, 25° C., 30 min
# Method: Mushroom tyrosinase and L-Tyrosine were obtained from Sigma-Aldrich, Inc. (St. Louis, Mo.). The enzyme activity was measured in buffer containing 100 mM phosphate buffer pH 6.8, 5% absolute ethanol, 2 micrograms/milliiliter mushroom tyrosinase, and 0.2 mg/ml L-Tyrosine. The reaction (conversion of L-Tyrosine to DOPAchrome) was conducted in triplicates at 25° C. for 30 min, and absorbance was then measured at 492 nm. […] Percent change in tyrosinase activity relative to vehicle control was calculated.
Label scheme for Tyrosinase Activity relative to Vehicle Control: lower than -70% is Not satisfied, -70% and above is Satisfied.

{"chemical.string": "Sc1nnc2sc3ccccc3n12", "qualitative.label": "Not satisfied"}
{"chemical.string": "S=c1nc(-c2cccs2)cn[nH]1", "qualitative.label": "Not satisfied"}
{"chemical.string": "S=c1[nH]nc(-c2ccc3c(c2)OCO3)o1", "qualitative.label": "Satisfied"}
{"chemical.string": "Cc1cc(C)n(-c2ccc(=S)[nH]n2)n1", "qualitative.label": "Not satisfied"}
{"chemical.string": "Cn1c2ccccc2n2c(=S)[nH]nc12", "qualitative.label": "Not satisfied"}
